- Target: the molecule itself
- Experiment Summary: SEC
Collected stoichiometry N values appear next to each entry.
Number only, no unit.

Check out these entries, answers already filled in.
Please report stoichiometry N for the following protein: OX40L-CD40L (ligand, human) QVSHRYPRIQSIKVQFTEYKKEKGFILTSQKEDEIMKVQNNSVIINCDGFYLISLKGYFSQEVNISLHYQKDEEPLFQLKKVRSVNSLMVASLTYKDKVYLNVTTDNTSLDDFHVNGGELILIHQNPGEFCVLGGGGSGGGGSGGGGSGDQNPQIAAHVISEASSKTTSVLQWAEKGYYTMSNNLVTLENGKQLTVKRQGLYYIYAQVTFCSNREASSQAPFIASLCLKSPGRFERILLRAANTHSSAKPCGQQSIHLGGVFELQPGASVFVNVTDPSQVSHGTGFTSFGLLKL 3

Please report stoichiometry N for the following protein: CD27L-OX40L (ligand, human) SLGWDVAELQLNHTGPQQDPRLYWQGGPALGRSFLHGPELDKGQLRIHRDGIYMVHIQVTLAICSSTTASRHHPTTLAVGICSPASRSISLLRLSFHQGCTIASQRLTPLARGDTLCTNLTGTLLPSRNTDETFFGVQWVRPGGGGSGGGGSGGGGSQVSHRYPRIQSIKVQFTEYKKEKGFILTSQKEDEIMKVQNNSVIINCDGFYLISLKGYFSQEVNISLHYQKDEEPLFQLKKVRSVNSLMVASLTYKDKVYLNVTTDNTSLDDFHVNGGELILIHQNPGEFCVL 3

Next:
Please report stoichiometry N for the following protein: OX40L-4-1BBL (ligand, human) QVSHRYPRIQSIKVQFTEYKKEKGFILTSQKEDEIMKVQNNSVIINCDGFYLISLKGYFSQEVNISLHYQKDEEPLFQLKKVRSVNSLMVASLTYKDKVYLNVTTDNTSLDDFHVNGGELILIHQNPGEFCVLGGGGSGGGGSGGGGSGGGGSREGPELSPDDPAGLLDLRQGMFAQLVAQNVLLIDGPLSWYSDPGLAGVSLTGGLSYKEDTKELVVAKAGVYYVFFQLELRRVVAGEGSGSVSLALHLQPLRSAAGAAALALTVDLPPASSEARNSAFGFQGRLLHLSAGQRLGVHLHTEARARHAWQLTQGATVLGLFRVTPEIPAGLPSPRSE 3
